target: human plasma protein factor Xa (Homo sapiens); construct: measure proteolytic activity of the enzyme (factor Xa); experiment: Factor Xa IC50 determination (cleavage of chromogenic substrate S-2765); settings: fXa 1 nM, S-2765 100 μM, Tris buffered saline pH 7.4, room temperature
Sequence (P00742 235-488 limits assumed): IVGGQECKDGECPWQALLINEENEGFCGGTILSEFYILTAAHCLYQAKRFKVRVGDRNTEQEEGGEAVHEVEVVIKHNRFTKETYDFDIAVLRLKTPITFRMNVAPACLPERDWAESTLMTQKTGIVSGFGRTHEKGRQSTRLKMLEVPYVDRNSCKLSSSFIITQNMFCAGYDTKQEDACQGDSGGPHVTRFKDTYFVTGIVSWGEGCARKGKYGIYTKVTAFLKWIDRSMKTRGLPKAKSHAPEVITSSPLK
Sequence (P00742 41-179 partner limits assumed): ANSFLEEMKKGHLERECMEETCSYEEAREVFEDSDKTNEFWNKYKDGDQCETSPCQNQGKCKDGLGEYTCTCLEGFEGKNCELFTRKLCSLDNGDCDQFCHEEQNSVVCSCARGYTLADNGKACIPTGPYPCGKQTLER
Below, each entry is listed with its recorded IC50.

// known answers, use as guide
N=C(c1ccc(NC(=O)C(NC(=O)Nc2ccc(Br)cc2)c2ccccc2F)cc1)N1CCCCC1 (stereo not shown): ≤ 100 nM
CN1CCN=C1c1ccc(N2C(=O)CC(NC(=O)Nc3ccc(Cl)cc3)C2=O)cc1 (stereo not shown): 100 to 500 nM
Cc1ccccc1C(NC(=O)Nc1ccc(Cl)cc1)C(=O)NC1CCN(C(C)C)CC1 (stereo not shown): ≥ 500 nM

## Input So what does the record say about IC50 for CC(=N)N1CCC(CNC(=O)C(NC(=O)Nc2ccc(Cl)cc2)c2ccccc2F)CC1 (stereo not shown) ?
## Output 100 to 500 nM

## Input I have this compound here, CN1CCN=C1c1ccc(NC(=O)C(NC(=O)Nc2ccc(Cl)cc2)c2ccccc2SC(F)(F)F)cc1 (stereo not shown) , and I need its recorded IC50.
## Output ≤ 100 nM

## Input Reported IC50, compound N=C(c1ccc(NC(=O)C(NC(=O)Nc2ccc(Cl)cc2)c2ccccc2Br)cc1)N1CCCC1 (stereo not shown) : ____
## Output ≤ 100 nM

## Input Would you mind telling me what IC50 value was observed for N=C(c1ccc(NC(=O)C(NC(=O)Nc2ccc(Cl)cc2)c2cccs2)cc1)N1CCCC1 (stereo not shown) ?
## Output ≤ 100 nM

## Input Sample CN1CCN=C1c1ccc(NC(=O)C(Cc2ccccc2)NC(=O)Nc2ccc(Cl)cc2)cc1 (stereo not shown) — what was its IC50?
## Output ≤ 100 nM

## Input Looking for the measured IC50 of CN1CCCN(C2CCN(C(=O)[C@H](NC(=O)Nc3ccc(Cl)cc3)c3ccccc3)CC2)CC1 , can you help?
## Output 100 to 500 nM

* * *

Attribute: pIC50
molecular target: human plasma protein factor Xa (Homo sapiens); construct: measure proteolytic activity of the enzyme (factor Xa); test: Factor Xa IC50 determination (cleavage of chromogenic substrate S-2765); conditions: fXa 1 nM, S-2765 100 μM, Tris buffered saline pH 7.4, room temperature
pIC50: −log10 of the molar value.

Here are 7 molecules together with their reported answers.
CN1CCN=C1c1ccc(NC(=O)C(NC(=O)Nc2ccc(Cl)cc2)C(C)(C)C)cc1 (centres unmarked): 6.30 to 7.00
CN1CCN=C1c1ccc(NC(=O)C(NC(=O)Nc2ccc(Cl)cc2)c2ccccc2Cl)cc1 (centres unmarked): ≥ 7.00
Cc1ccccc1C(NC(=O)Nc1ccc(Cl)cc1)C(=O)Nc1ccc(-n2ccnc2CN(C)C)cc1F (centres unmarked): ≥ 7.00
CN1CCN=C1c1ccc(N2C(=O)C(NC(=O)Nc3ccc(Cl)cc3)Cc3ccccc32)cc1 (centres unmarked): ≥ 7.00
CN1CCN=C1c1ccc(NC(=O)[C@@H](CC(=O)O)NC(=O)Nc2ccc(Cl)cc2)cc1: 6.30 to 7.00
CN(C)C(=N)c1ccc(N2C(=O)C(NC(=O)Nc3ccc(Cl)cc3)Cc3ccccc32)cc1 (centres unmarked): 6.30 to 7.00
CN1CCN=C1c1ccc(NC(=O)C(NC(=O)Nc2ccc(Cl)cc2)c2ccsc2)cc1 (centres unmarked): ≥ 7.00

## Input Entry CN1CCN=C1c1ccc(NC(=O)C(NC(=O)Nc2ccc(Cl)cc2)c2cccnc2)cc1 (centres unmarked) , system human plasma protein factor Xa (Homo sapiens): what pIC50 was measured?
## Output 6.30 to 7.00

* * *

target: human plasma protein factor Xa (Homo sapiens); construct: measure proteolytic activity of the enzyme (factor Xa); experiment: Factor Xa IC50 determination (cleavage of chromogenic substrate S-2765); conditions: fXa 1 nM, S-2765 100 μM, Tris buffered saline pH 7.4, room temperature
pIC50: −log10 of the molar value.
TEST_READOUT: pIC50

O=C(Nc1ccc(Cl)cc1)NC(C(=O)Nc1ccc(-c2cccc[n+]2[O-])cc1)c1ccccc1Cl (centres unmarked): ≥ 7.00
O=C(Nc1ccc(Cl)cc1)N[C@@H](C(=O)N1CCC(N2CCCCC2=O)CC1)c1ccccc1: ≥ 7.00
CN(C)C(=N)c1ccc(NC(=O)C(NC(=O)Nc2ccc(Cl)cc2)c2ccccc2)c(F)c1 (centres unmarked): ≥ 7.00
CN1CCN=C1c1ccc(NC(=O)CNC(=O)Nc2ccc(Cl)cc2)cc1: ≥ 7.00

## Input Item under review: Cc1ccccc1C(NC(=O)Nc1ccc(Cl)cc1)C(=O)Nc1ccc(N2CCOCC2=O)cc1 (centres unmarked) . Reported pIC50?
## Output ≥ 7.00

## Input Data request, read-out pIC50, for CN1CCN=C1c1ccc(NC(=O)C(CC(=O)N2CCOCC2)NC(=O)Nc2ccc(Cl)cc2)cc1 (centres unmarked)
## Output ≤ 6.30

## Input Fill in: pIC50 of COc1ccccc1C(NC(=O)Nc1ccc(Cl)cc1)C(=O)Nc1ccc(C(=N)N(C)C)cc1 (centres unmarked) is ___
## Output ≥ 7.00

## Input Can you look up the measured pIC50 of O=C(Nc1ccc(Cl)cc1)N[C@@H](C(=O)Nc1ccc(-n2ccccc2=O)cc1F)c1ccccc1 for me?
## Output ≥ 7.00

* * *

biological target: human plasma protein factor Xa (Homo sapiens); construct: measure proteolytic activity of the enzyme (factor Xa); assay: Factor Xa IC50 determination (cleavage of chromogenic substrate S-2765); conditions: fXa 1 nM, S-2765 100 μM, Tris buffered saline pH 7.4, room temperature
pIC50: −log10 of the molar value.
TEST_READOUT: pIC50

Some solved entries appear below for comparison.
N=C(c1ccc(N2C(=O)C(NC(=O)Nc3ccc(Cl)cc3)Cc3ccccc32)cc1)N1CCCC1 (stereo not shown): ≤ 6.30
Cc1ccccc1C(NC(=O)Nc1ccc(Cl)cc1)C(=O)Nc1ccc(C(=N)N(C)C)cc1 (stereo not shown): ≥ 7.00
COc1ccccc1C(NC(=O)Nc1ccc(Cl)cc1)C(=O)Nc1ccc(C2=NCCN2C)cc1 (stereo not shown): ≥ 7.00
CN1CCN=C1c1ccc(NC(=O)[C@H](CC(=O)O)NC(=O)Nc2ccc(Cl)cc2)cc1: ≤ 6.30
N=C(c1ccc(NC(=O)C(NC(=O)Nc2ccc(Cl)cc2)c2ccccc2)c(F)c1)N1CCC1 (stereo not shown): ≥ 7.00
CC(C)C(NC(=O)Nc1ccc(Cl)cc1)C(=O)Nc1ccc(C2=NCCN2C)cc1 (stereo not shown): ≥ 7.00

## Input Quick one: pIC50 for CN1CCN=C1c1ccc(NC(=O)C2(NC(=O)Nc3ccc(Cl)cc3)CC2)cc1 ?
## Output 6.30 to 7.00

* * *

target: human plasma protein factor Xa (Homo sapiens); construct: measure proteolytic activity of the enzyme (factor Xa); test: Factor Xa IC50 determination (cleavage of chromogenic substrate S-2765); details: fXa 1 nM, S-2765 100 μM, Tris buffered saline pH 7.4, room temperature
TEST_READOUT: IC50

O=C(Nc1ccc(Cl)cc1)NC(C(=O)Nc1ccc(-c2ccncc2)cc1)c1ccccc1F (stereo not shown): 100 to 500 nM
N=C(c1ccc(NC(=O)C(NC(=O)Nc2ccc(Cl)cc2)c2ccccc2)cc1)N1CCC1 (stereo not shown): ≤ 100 nM
Cc1ccccc1C(NC(=O)Nc1ccc(Cl)cc1)C(=O)Nc1ccc(-c2cccc[n+]2[O-])cc1 (stereo not shown): ≤ 100 nM

## Input Form field: reported IC50 of COc1ccccc1C(NC(=O)Nc1ccc(Cl)cc1)C(=O)N1CCN(C2CCCNCC2)CC1 (stereo not shown)
## Output ≤ 100 nM

* * *

target: human plasma protein factor Xa (Homo sapiens); construct: measure proteolytic activity of the enzyme (factor Xa); test: Factor Xa IC50 determination (cleavage of chromogenic substrate S-2765); details: fXa 1 nM, S-2765 100 μM, Tris buffered saline pH 7.4, room temperature
TEST_READOUT: IC50

For orientation, consider the following solved cases.
C#CCC(NC(=O)Nc1ccc(Cl)cc1)C(=O)Nc1ccc(C2=NCCN2C)cc1 (stereo not shown) [Example 129]: ≤ 100 nM
CN(C)Cc1ccccc1-c1ccc(NC(=O)C(NC(=O)Nc2ccc(Cl)cc2)c2ccccc2F)c(F)c1 (stereo not shown) [Example 56]: ≤ 100 nM

## Input Using the record for CN1CCN=C1c1ccc(NC(=O)C(NC(=O)Nc2ccc(Cl)cc2)c2ccccc2Oc2ccccc2)cc1 (stereo not shown) [Example 124] , report its IC50.
## Output ≤ 100 nM

## Input Using the record for O=C(Nc1ccc(Cl)cc1)NC(C(=O)Nc1ccc(-c2cccc[n+]2[O-])cc1)c1ccccc1OC(F)(F)F (stereo not shown) [Example 121] , report its IC50.
## Output ≤ 100 nM

## Input Which IC50 is reported for this compound? CN(C)Cc1ccccc1-c1ccc(NC(=O)C(NC(=O)Nc2ccc(Cl)cc2)c2ccccc2F)cc1 (stereo not shown) [Example 55]
## Output ≤ 100 nM

## Input Consider the compound shown here: CN1CCN=C1c1ccc(NC(=O)C(CC(C)(C)C)NC(=O)Nc2ccc(Cl)cc2)cc1 (stereo not shown) [Example 4] What is its recorded IC50?
## Output ≥ 500 nM

## Input What IC50 value was documented for this compound, CN1CCN=C1c1ccc(NC(=O)C(Cc2cn(C)c3ccccc23)NC(=O)Nc2ccc(Cl)cc2)cc1 (stereo not shown) [Example 8] ?
## Output ≤ 100 nM

## Input State the recorded IC50 for this entry: CN(C)C(=N)c1ccc(NC(=O)C(NC(=O)Nc2ccc(Cl)cc2)c2ccccc2Cl)cc1 (stereo not shown) [Example 100]
## Output ≤ 100 nM

## Input What value of measured IC50 is listed for O=C(Nc1ccc(Cl)cc1)N[C@@H](C(=O)Nc1ccc(-n2ccccc2=O)cc1)c1ccccc1 [Example 138] ?
## Output ≤ 100 nM

## Input Would you kindly share the measured IC50 for COc1ccccc1C(NC(=O)Nc1ccc(Cl)cc1)C(=O)N1CCC(N2CCCCC2=O)CC1 (stereo not shown) [Example 150] ?
## Output ≤ 100 nM

## Input // returns reported IC50 for input CN(C)NC(=N)c1ccc(NC(=O)C(NC(=O)Nc2ccc(Cl)cc2)c2ccccc2F)c(F)c1 (stereo not shown) [Example 48]
## Output 100 to 500 nM

## Input Fill blank: measured IC50 of the compound CC#CCC(NC(=O)Nc1ccc(Cl)cc1)C(=O)Nc1ccc(-c2cccc[n+]2[O-])cc1 (stereo not shown) [Example 131] is ____.
## Output ≤ 100 nM

## Input # query: IC50 of entry O=C(Nc1ccc(Cl)s1)N[C@H](C(=O)Nc1ccc(-n2ccccc2=O)cc1)c1ccccc1 [Example 139]
## Output ≤ 100 nM

## Input Name the recorded IC50 for CN1CCN=C1c1ccc(NC(=O)C(NC(=O)Nc2ccc(Cl)cc2)(c2ccccc2)c2ccccc2)cc1 [Example 14] .
## Output ≥ 500 nM

## Input Report IC50 for CN1CCCN(c2ccc(NC(=O)C(NC(=O)Nc3ccc(Cl)cc3)c3ccccc3Cl)cc2)CC1 (stereo not shown) [Example 102] please.
## Output ≤ 100 nM

## Input Which measured IC50 value corresponds to CN1CCC(N2CCCN(C(=O)[C@H](NC(=O)Nc3ccc(Cl)cc3)c3ccccc3)CC2)CC1 [Example 156] ?
## Output ≥ 500 nM
